Method Summary: NCI Yeast Anticancer Drug Screen. Data for the mec2-1 strain (AID 157)
Particulars: S. cerevisiae mec2-1 strain, stronger effect = higher value; at 50.0 µM unless noted
Description: Growth inhibition of yeast strains with defined genetic alterations is measured as a screen for potential anti-cancer activity. Selected strains with alterations in DNA damage repair or cell cycle control were exposed to compounds and growth inhibition was measured relative to vehicle treated controls. The strain used in this assay is mec2-1
About 79,000 compounds went through this panel and 15% of them were active in at least one assay; those are over-represented in the sample as a whole.
Listed below: growth inhibition values for each entry.

Molecule	Unit	growth inhibition
CC(=O)N(c1nc2ccccc2s1)N1C(=O)c2ccccc2C1=O	%	-33.3
CN[C@@H]1[C@H](O)[C@H](NC)[C@H]2O[C@@]3(O)C(=O)C[C@@H](C)O[C@H]3O[C@@H]2[C@H]1O	%	-23.1
c1ccc(CNc2nn[nH]n2)cc1	%	5.1
CCOC(=O)C(CCc1ccccc1)(NC(C)=O)C(=O)OCC	%	-7.8
CCOC(Cn1ccc[n+]1CC(=O)c1ccccc1)OCC	%	-5.25
CC(C)CCOB(OCCC(C)C)OCCC(C)C	%	-40.1
NC(N)=N/N=C(/c1ccccc1)c1ccc(O)cc1O	%	-15.7
CC1Cc2c(n[nH]c2CC2CC(=O)NC(=O)C2)C(C)C1 (configuration not stated)	%	-2.35
CC(C)C1CCC2C(CCC3C(C)(C(=O)O)CCCC23C)C1 (configuration not stated)	%	14.1
CC(O)C(C(=O)O)N(CC1(O)OCC(O)C(O)C1O)N=O (configuration not stated)	%	-13.9
Cc1cccc(C)c1NC(=S)N/C=C(\C#N)C(N)=O	%	-72.2
COC(=O)CCC1(C)C2CCC1(C)/C(=N/O)C2 (configuration not stated)	%	3.15
OC1C(SCc2ccccc2)OCC2OC3(CCCCC3)OC21 (configuration not stated)	%	-5.7
C/C(=N\NS(=O)(=O)c1c(C)cc(C)cc1C)c1ccc[n+]([O-])n1	%	0.2
CC(C)(C)NC(=O)CCCl	%	14.4
N#CCCC(C#N)(CCC#N)C(N)=O	%	-18
CSc1ccc(C(C)=O)cc1	%	5.9
OCC1OC(n2cnc3c(/C=C(/O)c4ccccc4)ncnc32)C(O)C1O (configuration not stated)	%	-27
CCOC(=O)c1cccc(N)c1C(=O)OCCN(CC)CC	%	0.15
O=C1N(C2CCCCC2)C(/C=C/c2ccccc2)C1(c1ccccc1)c1ccccc1 (configuration not stated)	%	0.25
O=c1cc(CBr)c2ccc(O)cc2o1	%	2.55
C=C1C(=O)O[C@@H]2C[C@@H](C)[C@@H]3C=CC(=O)[C@@]3(C)[C@@H](OC(=O)CCCC(=O)O[C@H]3[C@@H]4C(=C)C(=O)O[C@@H]4C[C@@H](C)[C@@H]4C=CC(=O)[C@]43C)[C@H]12	%	49
CC1C(=O)N(c2ccccc2)NC12CCCc1ccccc12 (configuration not stated)	%	-7.3
O=C(CCCN1CCC2(CC1)C(=NC1CCCCC1)NC(=O)N2c1ccccc1)c1ccc(F)cc1	%	-3.6
COC1CC(OC2CCC3(C)C(CCC45CCC(C6=CC(=O)OC6)C(C)(CCC43)C5=O)C2)OC(C)C1O (configuration not stated)	%	-11.7
CCc1ccc2c(c1)C(=O)c1ccccc1C2=O	%	21.8
O=C1OCC/C1=C/c1ccc(N=Nc2c(O)ccc3ccccc23)cc1	%	-6.05
COc1ccc(C(c2ccc(OC)cc2)N2C(=O)CCC2C(=O)O)cc1 (configuration not stated)	%	21.2
O/N=C1\c2ccccc2-c2cccc(Br)c21	%	2.9
CC1=N/C(=C\c2cccc([N+](=O)[O-])c2)C(=O)O1	%	-30.8
CC(=O)OC1CC2C3CCc4cc(O)ccc4C3CCC2(C)C1 (configuration not stated)	%	-15.8
Cc1ccc(OS(=O)(=O)c2cccc(S(=O)(=O)Oc3ccc(C)cc3)c2)cc1	%	3.35
COc1ccccc1CN1CCCN(Cc2ccccc2OC)C1c1ccc(N(C)C)cc1	%	32.6
CSc1ncn(C)c1C(N)=O	%	4.25
COc1ccc(C=O)c(Cl)c1OC	%	14.4
CCC(CC)C(O)C(C)C(C)O (configuration not stated)	%	-8.8
O=Cc1ccc(C=O)o1	%	-1.8

----------
Method Summary: NCI Yeast Anticancer Drug Screen. Data for the sgs1 mgt1 strain (AID 161);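 note: 0% = growth of cultures given vehicle only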
Particulars: S. cerevisiae sgs1 mgt1 strain, stronger effect = higher value; at 50.0 µM unless noted
Protocol: Growth inhibition of yeast strains with defined genetic alterations is measured as a screen for potential anti-cancer activity. Selected strains with alterations in DNA damage repair or cell cycle control were exposed to compounds and growth inhibition was measured relative to vehicle treated controls. The strain used in this assay is sgs1 mgt1
This is part of a sample that, as a whole, favours compounds with a hit. Of some 79,000 tested, about 15% had one in any assay.
Parameter: growth inhibition (%)

In [3]: df
Out[3]:
                                    compound  measured
 0  CN(C)C(=S)Oc1ccc(-c2c(-c3ccccc3)oc3ccc4ccccc4c23)cc1      7.95
 1                    CCN(CC)CCN=Cc1ccccc1OC     -3.85
 2                          COc1ccc(O)cc1C=O     -10.6
 3  O=C1c2ccccc2CCC1c1ccccc1 (configuration not stated)      -5.2
 4  CCn1c2ccccc2c2cc(N=Nc3ccc4c(c3)c3ccccc3n4CC)ccc21      19.9
 5    CCCCCCCCCCCC(=O)OC(COCCC(C)C)COCCC(C)C     -3.15
 6                             Cc1cccc(C)c1I     -67.2
 7       Cc1ccc(C)c(Nc2c(C)ccc(C)c2C(=O)O)c1      12.4
 8  CC[N+](C)(CC)CCNC(=O)C(c1ccccc1)c1ccccc1      21.1
 9  CCOc1ccc(/C=C/C(=O)c2sc(NNC(C)=O)nc2C)cc1     -11.6
10              Cc1nc2[nH]c(=O)[nH]c(=O)c2s1     -1.25
11  CC(=O)CCCCC(=O)Nc1ccc(CC(NC(=O)OC(C)(C)C)C(=O)NCC(=O)OCc2ccccc2)cc1 (configuration not stated)      -1.6
12  CCCC1([N+]2(C)CCCC2)CS(=O)C1CC (configuration not stated)        -3
13  OC(c1ccc(Cl)cc1)c1ccccn1 (configuration not stated)      -7.3
14                   CCCc1cc(Cl)ccc1OCC(=O)O      14.1
15  N#CC1CC2CC1C1OC21 (configuration not stated)     -14.1
16                       CC(=O)/C=C/N1CCOCC1      -9.6

----------
Method Summary: NCI Yeast Anticancer Drug Screen. Data for the rad50 strain (AID 155);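 note: 0% = growth of vehicle-only cultures of the same strain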
Particulars: S. cerevisiae rad50 strain growth inhibition, stronger effect = higher value; at 50.0 µM unless noted
The panel holds about 79,000 compounds, 15% with a hit somewhere; the sample as a whole holds those more often.
Listed below: growth inhibition values for each entry.
Parameter: growth inhibition (%)

>>> print(df.to_string())
                                    molecule  unit  measured
 0           CCCCN(CCCC)CC(=O)NC(=O)c1ccccc1     %     -9.55
 1  Cc1nc2c(n1-c1ccc(Br)cc1)C(=O)c1ccccc1C2=O     %      33.9
 2  O=C(c1ccccc1)C(c1ccccc1)C(Cl)c1ccccc1 (configuration not stated)     %      21.4
 3            O=C(O)c1cccc2c(=O)c3ccccc3oc12     %     -13.9
 4  COc1ccc2[nH]c3cc4c(=O)c5cc(OC)ccc5[nH]c4cc3c(=O)c2c1     %     -31.6
 5                 S=c1[nH]nc(-c2ccccc2Cl)o1     %     -47.9
 6  O=C1c2ccccc2C(=Cc2cccc([N+](=O)[O-])c2)c2ccccc21     %      15.6
 7  O=C1CC(c2ccccc2)n2c(nc3ccccc32)N1 (configuration not stated)     %         5
 8  COc1ccc(/C=N/NS(=O)(=O)c2ccc(NC(C)=O)cc2)cc1     %     -15.2
 9  c1ccc(C2c3ccccc3CN2c2ccccc2)cc1 (configuration not stated)     %      25.4
10  CCN(CC)CCNc1ccc(COC(=O)NC)c2sc3ccccc3c(=O)c12     %       3.9
11                           O=I(=O)c1ccccc1     %      3.95

----------
Method Summary: NCI Yeast Anticancer Drug Screen. Data for the bub3 strain (AID 167)
Particulars: S. cerevisiae bub3 mutant strain, stronger effect = higher value; at 50.0 µM unless noted
Compounds without any hit were thinned out: in the full panel of roughly 79,000, 15% have a hit.
Parameter: growth inhibition (%)

                         cpd_smiles          parameter  unit  measured
0         CC(C)NC(=O)c1ccc(Cl)cc1Cl  growth inhibition     %       3.7
1      c1cnc2c(c1)Oc1nc3ccccc3nc1S2  growth inhibition     %       8.9
2     O=C(/C=C/c1ccccc1)c1ccc(I)cc1  growth inhibition     %      5.25
3  CN1CCC/C1=N\C(=Nc1ccccc1)N1CCCC1  growth inhibition     %     -4.35
4               CCOC(=N)C1(O)CCCCC1  growth inhibition     %      -3.8
5    O=C(Nc1ccc2ccccc2c1)c1ccccc1Cl  growth inhibition     %      17.1
6               CCOC(=O)c1ccc(N)nc1  growth inhibition     %      7.95
7         CC(C)(CO)CNC(=O)C(C)(C)CO  growth inhibition     %      16.8
8      O=C(O)C(F)(F)C(F)(F)C(F)(F)F  growth inhibition     %      1.15
